experiment: qHTS assay to identify aromatase inhibitors - cell viability counter screen (AID 743084); details: MCF-7 aro ERE viability, CellTiter-Fluor, 24 h; series mostly up to 70.3 µM;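 further: cells stimulated with testosterone during compound exposure; nearly all actives have a fitted effect of over 55% in size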
Records with an inconclusive call do not appear. The source made the active and inactive calls. The call rests on the fitted dose curve; in most records, active means well fitted cell-killing curve with a large enough effect in the repeat runs; inconclusive means weak or mixed curves, or effect the other way; inactive means no such curve, though single readings can be large or run the other way.
Write down the outcome that applies. Available outcomes: active, inactive

Reference set, count: 3
Molecule | Class
CN=C=O | inactive
Cc1cccc(Cc2cnc[nH]2)c1C | inactive
CC1(C)[C@H](/C=C2\CCSC2=O)[C@@H]1C(=O)OCc1coc(Cc2ccccc2)c1 | inactive

Ask: What outcome does the record of this test show for C[N+]1(C)[C@@H]2CC[C@H]1CC(OC(=O)C(CO)c1ccccc1)C2 (some centres not stated) ?
Result: inactive

Ask: What outcome does the record of this test show for CC(Cc1ccc(O)cc1)NCC(O)c1cc(O)cc(O)c1 (configuration not stated) ?
Result: inactive

Ask: What outcome does the record of this test show for Cc1c([N+](=O)[O-])cc2c(c1[N+](=O)[O-])C(C)(C)CC2(C)C ?
Result: inactive

---

assay: qHTS assay to identify small molecule antagonists of the peroxisome proliferator-activated receptor delta (PPARd) signaling pathway - cell viability counter screen (AID 743213); conditions: PPARd-bla HEK293H viability, CellTiter-Glo luminescence, 17 h; series mostly up to 62 µM; further: nearly all actives have a fitted effect of over 50% in size
Inconclusive results are not listed. Calls of active or inactive are those of the source. The call rests on the fitted dose curve; in most records, active means well fitted cell-killing curve with a large enough effect in the repeat runs; inconclusive means weak or mixed curves; inactive means no such curve, though single readings can be large or run the other way.
Write down the outcome that applies. Available outcomes: Yes for active, No for inactive

Reference set, count: 8
Compound | Class
CNC(=O)/C=C(\C)OP(=O)(OC)OC | No
O=NN(CCO)CCO | No
CC(=O)[O][Sn]([c]1ccccc1)([c]1ccccc1)[c]1ccccc1 | Yes
CNC(=O)Oc1cc(C)cc(C(C)C)c1 | No
CN/C(=N\[N+](=O)[O-])NCc1cnc(Cl)s1 | No
CC(=O)C(Cl)C(=O)N(C)C (stereo unspecified) | No
O=c1[nH]c2cc(Cl)ccc2n1C1CCNCC1 | No
[O]=[Cr][O][Cr]=[O] | No

Ask: What outcome does the record of this test show for CCCCc1ccccc1 ?
Result: No

Ask: What outcome does the record of this test show for Nc1nc(N)nc(Cl)n1 ?
Result: No

Ask: What outcome does the record of this test show for Cc1ccc([N+](=O)[O-])[c]2c1[O][Hg]2 ?
Result: Yes

---

target: Nuclear receptor subfamily 1 group I member 3 (Homo sapiens) (UniProt Q14994); assay: qHTS assay to identify small molecule agonists of the constitutive androstane receptor (CAR) signaling pathway (AID 1224839); conditions: HepG2 hCAR CYP2B6-luciferase, agonist mode, 24 h; series mostly up to 92.4 µM; further: nearly all actives have a fitted effect of over 15% in size;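 on activation: HepG2 cells stably carrying human CAR and a CYP2B6 luciferase reporter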
Sequence (Q14994 whole entry, looked up): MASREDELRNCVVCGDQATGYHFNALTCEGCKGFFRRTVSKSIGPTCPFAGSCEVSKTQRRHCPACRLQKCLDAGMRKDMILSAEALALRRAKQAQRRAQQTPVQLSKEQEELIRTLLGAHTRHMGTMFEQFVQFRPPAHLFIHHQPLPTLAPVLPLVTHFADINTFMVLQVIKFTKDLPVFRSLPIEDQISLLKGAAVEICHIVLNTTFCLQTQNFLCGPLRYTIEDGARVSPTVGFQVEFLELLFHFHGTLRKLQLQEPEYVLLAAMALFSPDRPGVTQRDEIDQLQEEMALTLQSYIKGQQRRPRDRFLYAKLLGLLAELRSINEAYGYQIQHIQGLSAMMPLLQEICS
Results filed as inconclusive are left out. The source made the active and inactive calls. Calls come from the whole dose curve; as a rule, active = well fitted activation curve with a large enough effect in the repeat runs; inconclusive = weak or mixed curves; inactive = no such curve, though single readings can be large or run the other way.
Write down the outcome that applies. Available outcomes: yes (1) for active, no (0) for inactive

Reference set, count: 3
Compound | Class
O=[N+]([O-])c1ccc(CCl)cc1 | no (0)
CC(C)(C)c1ccc(OP(=O)(Oc2ccccc2)Oc2ccccc2)cc1 | yes (1)
CCOC(=O)CCN(SN(C)C(=O)Oc1cccc2c1OC(C)(C)C2)C(C)C | yes (1)

Ask: What outcome does the record of this test show for C=CCBr ?
Result: no (0)

Ask: What outcome does the record of this test show for O=C1C2(Cl)C3(Cl)C4(Cl)C(Cl)(Cl)C5(Cl)C3(Cl)C1(Cl)C5(Cl)C24Cl (stereo not drawn) ?
Result: no (0)

Ask: What outcome does the record of this test show for ClSC(Cl)(Cl)Cl ?
Result: no (0)
